The measured values listed here are drawn from ChEMBL document CHEMBL1146712.

# System: PC-3
# protocolNotes: Concentration required to inhibit growth of human prostate (PC3) cell line
# Assay type: functional
attributeMeasured: GI50 (µM)
Record the value in µM, omitting the unit from your answer.

Input: Respond only with GI50 recorded for COc1cc2ncnc(Nc3ccc(CS(=O)(=O)/C=C/c4ccc(Cl)cc4Cl)cc3)c2cc1OC
Output: 5

Input: Given the compound O=S(=O)(/C=C/c1ccc(O)cc1)Cc1ccc(Nc2ncnc3ccc(Br)cc23)cc1 , write its reported GI50.
Output: 42

Input: Identify measured GI50 corresponding to COc1cc2ncnc(Nc3ccc(CS(=O)(=O)/C=C/c4ccc(Br)cc4)cc3)c2cc1OC
Output: 9.5

Input: Using known records, supply GI50 for COc1cc2ncnc(Nc3ccc(CS(=O)(=O)/C=C/c4ccc(F)cc4)cc3)c2cc1OCCCN1CCOCC1
Output: 28

Input: Complete the entry with GI50 for O=S(=O)(/C=C/c1ccc(C(F)(F)F)cc1F)Cc1ccc(Nc2ncnc3ccc(Br)cc23)cc1
Output: 58

Input: Consider the compound O=S(=O)(/C=C/c1ccc(Cl)cc1Cl)Cc1ccc(Nc2ncnc3cc(Cl)ccc23)cc1 and give its recorded GI50.
Output: 38

Input: Supply recorded GI50 for O=S(=O)(/C=C/c1ccc(Cl)cc1)Cc1ccc(Nc2ncnc3ccc(Br)cc23)cc1 here.
Output: 2

###

# Test system: PC-3
# protocolNotes: Concentration required to inhibit growth of human prostate (PC3) cell line
# Format: functional
Output 1.0 for records whose GI50 is lower than 40 µM, 0.0 for records at or above 40 µM.

Sample answers from the record:
>>> assignedclass("O=S(=O)(/C=C/c1ccc(C(F)(F)F)cc1F)Cc1ccc(Nc2ncnc3ccccc23)cc1")
0.0
>>> assignedclass("O=S(=O)(/C=C/c1ccc(Cl)c(Cl)c1)Cc1ccc(Nc2ncnc3ccc(Br)cc23)cc1")
1.0
>>> assignedclass("O=S(=O)(/C=C/c1ccc(F)cc1Cl)Cc1ccc(Nc2ncnc3cc(Cl)ccc23)cc1")
0.0

Input: Strictly below 40 µM: is that where GI50 of O=S(=O)(/C=C/c1ccc(O)cc1)Cc1ccc(Nc2ncnc3ccccc23)cc1 sits?
Output: 1.0

Input: GI50 under 40 µM? Item: COc1cc2ncnc(Nc3ccc(CS(=O)(=O)/C=C/c4ccc(Cl)cc4Cl)cc3)c2cc1OCCCN1CCOCC1
Output: 1.0

Input: For this compound, is GI50 lower than 40 µM? CC(C)(C)c1cc(/C=C/S(=O)(=O)Cc2ccc(Nc3ncnc4ccccc34)cc2)cc(C(C)(C)C)c1O
Output: 1.0

Input: Is GI50 of O=S(=O)(/C=C/c1ccc(Cl)c(Cl)c1)Cc1ccc(Nc2ncnc3ccccc23)cc1 strictly below 40 µM?
Output: 1.0

Input: Determine if O=S(=O)(/C=C/c1ccc(Cl)cc1)Cc1ccc(Nc2ncnc3ccccc23)cc1 shows GI50 strictly lower than 40 µM.
Output: 0.0

Input: Take the compound N#Cc1ccc(/C=C/S(=O)(=O)Cc2ccc(Nc3ncnc4ccccc34)cc2)cc1 and say whether its GI50 is less than 40 µM.
Output: 0.0

Input: Confirm or reject: GI50 of O=S(=O)(/C=C/c1ccc(F)cc1)Cc1ccc(Nc2ncnc3ccccc23)cc1 lies strictly below 40 µM
Output: 1.0

###

Let's go through some recorded GI50 values for NCI-H522 (Homo sapiens) together.

Observe how each entry below is paired with its result.
>>> result("O=S(=O)(/C=C/c1ccc(Cl)cc1)Cc1ccc(Nc2ncnc3ccccc23)cc1")
"46 µM"
>>> result("COc1cc2ncnc(Nc3ccc(CS(=O)(=O)/C=C/c4ccc(F)cc4)cc3)c2cc1OCCCN1CCOCC1")
"> 100 µM"
>>> result("O=S(=O)(/C=C/c1ccccc1)Cc1ccc(Nc2ncnc3ccccc23)cc1")
"> 100 µM"
>>> result("COc1cc2ncnc(Nc3ccc(CS(=O)(=O)/C=C/c4ccc(F)cc4)cc3)c2cc1OCCN1CCOCC1")
"100 µM"
>>> result("O=S(=O)(/C=C/c1ccc(C(F)(F)F)cc1F)Cc1ccc(Nc2ncnc3ccccc23)cc1")
"100 µM"
>>> result("O=S(=O)(/C=C/c1ccc(Cl)cc1Cl)Cc1ccc(Nc2ncnc3ccccc23)cc1")
"12 µM"
>>> result("O=S(=O)(/C=C/c1ccc(Cl)c(Cl)c1)Cc1ccc(Nc2ncnc3ccccc23)cc1")
"32 µM"
>>> result("O=S(=O)(/C=C/c1ccc(Cl)c(Cl)c1)Cc1ccc(Nc2ncnc3ccc(Br)cc23)cc1")
"> 100 µM"

Input: Under NCI-H522 (Homo sapiens), report GI50 for CC(C)(C)c1cc(/C=C/S(=O)(=O)Cc2ccc(Nc3ncnc4ccccc34)cc2)cc(C(C)(C)C)c1O
Output: 45 µM
